Consider the following binders; for each one, report its pKd.
biological target: T1, human CCR8 (C-C chemokine receptor type 8) expressed on cells (human, UniProt P51685 1-355); test: on-cell affinity, flow cytometry on 293T cells expressing human CCR8
T1 construct: also called HuCCR8
T1 sequence (P51685 whole entry): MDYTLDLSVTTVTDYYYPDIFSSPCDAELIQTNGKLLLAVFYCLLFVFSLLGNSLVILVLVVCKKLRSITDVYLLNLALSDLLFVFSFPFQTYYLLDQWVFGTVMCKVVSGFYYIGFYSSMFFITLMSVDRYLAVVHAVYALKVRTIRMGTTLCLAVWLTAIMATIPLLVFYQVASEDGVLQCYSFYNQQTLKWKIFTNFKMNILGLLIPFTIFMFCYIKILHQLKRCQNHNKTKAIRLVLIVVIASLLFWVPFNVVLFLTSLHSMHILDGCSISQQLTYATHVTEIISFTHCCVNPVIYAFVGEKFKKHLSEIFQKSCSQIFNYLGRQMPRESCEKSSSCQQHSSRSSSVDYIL
Give only the number. pKd is defined as minus log10 of concentration in molar units.

Would you kindly share the measured pKd for anti-CCR8-2-6 (antibody, V domains shown, Human IgG) VH: EVQLVESGGGLVQPGRSLRLSCAASGFTFDDYAMHWVRQAPGKGLEWVSGISWNSGSIGYADSVKGRFTISRDNSKNSLYLQMNSLRAEDTALYYCARGRVSYRESLRFDYWGQGTLVT VL: QSVLTQPPSVSAAPGQKVTISCSGSSSNIGNNYVSWYQQLPGTAPKLLIYDNNKRPSGIPDRFSGSKSGTSATLGITGLQTGDEADYYCGTWDSSLSAWVFGGGTKLT ?
8.82

Value lookup for pKd; key = anti-CCR8-2-10 (antibody, V domains shown, Human IgG) VH: EVQLVESGGGLVQPGRSLRLSCAASGFTFDDYAMHWVRQAPGKGLEWVSGISWNSGSIGYADSVKGRFTISRDNSKNSLYLQMNSLRAEDTALYYCARGRKSYRDSLRFDYWGQGTLVTVSS VL: QSVLTQPPSVSAAPGQKVTISCSGTSSNIGKNFVSWYQQLPGTAPKLLIYDDNKRPSGIPDRFSGSKSATSATLGITGLQTGDGADYYCGTWDSSLSAWVFGGGTKLTVL
8.62
